Reported pIC50 is given for each of the following compounds.
tested on: HCT 116 cells; assay: Viability assay in HCT 116 cells (CellTiter-Glo Luminescent Cell Viability Assay); assay type: cell-based; details: HCT 116 human colon carcinoma cells, 5 days (120 h) incubation, 10 concentrations 30 μM to 0.0015 μM, ATP luminescence
pIC50: −log10 of the molar value. Where a name gives a salt, the structure may show the parent alone.

{"COMPOUND": "O=C(NS(=O)(=O)c1ccc(N2CCCCCC2)nc1)c1ccc(Cl)cc1C(F)(F)F", "pIC50": "4.80 to 6.00"}
{"COMPOUND": "O=C(NS(=O)(=O)c1cccnc1)c1ccc(C(F)(F)F)cc1C(F)(F)F [Example 1-38, sodium salt]", "pIC50": "4.80 to 6.00"}
{"COMPOUND": "O=C(NS(=O)(=O)c1cnc(Cl)c(Br)c1)c1ccc(Cl)cc1Br [Example 1-8, sodium salt]", "pIC50": "4.80 to 6.00"}

In the following, a different compound is considered.
What measured pIC50 goes with O=C(NS(=O)(=O)c1ccc(N2CCOCC2)nc1)c1ccc(Cl)cc1Cl [Example 1-1, sodium salt] ?
4.80 to 6.00
